Consider the following compounds; for each one, report its AC50.
- SYSTEM TESTED: Heat shock protein HSP 90-alpha (Homo sapiens, UniProt P07900)
- Assay type: functional, organism-based
Calls of active or inactive are those of the source.

COMPOUND	AC50
CCCCN1C(=O)/C(=C/C=C2\Oc3ccccc3N2CC)SC1=S	171 µM (active)
CCC(=O)NC(c1cccs1)c1cc(Cl)c2cccnc2c1O (stereo unspecified)	3.61 µM (active)
C=CCn1c(C)cc(C(=O)CSc2nc(O)c3ccccc3n2)c1C	2.6 µM (active)
Cc1ccc(OCC(=O)NNC(=S)NC(=O)C2CC2)c(C)c1	4.32 µM (active)
Cc1ccc(NC(=S)N/N=C/c2ccc([N+](=O)[O-])s2)cc1	3.4 µM (active)

What does the data say about its AC50? Entry: CCCCCCCCCCCCCCCC[N+](C)(C)CCN(Cc1ccc(OC)cc1)c1ncccn1 [THONZONIUM BROMIDE]
6.06 µM (active)
